System: 242566-281-R-J2-PDC complex spheroid viability
Experiment: Anticancer human tumor 242566-281-R-J2-PDC patient-derived pancreatic carcinoma cell line growth inhibition [RAS]
Settings: second compound 10 µM; first compound 0.0316 µM; hits give low values
Property measured: viability, T/C (%)
Please reply with the bare figure in % and do not write the unit itself.

Solved cases (2 shown):
Compound | Units | viability, T/C
C=CC(=O)Nc1cc(Nc2nccc(-c3cn(C)c4ccccc34)n2)c(OC)cc1N(C)CCN(C)C + C#Cc1c(F)ccc2cc(O)cc(-c3ncc4c(N5CC6CCC(C5)N6)nc(OCC56CCCN5CC(F)C6)nc4c3F)c12 | % | 44.6
C=CC(=O)N1CCN(c2nc(OCC3CCCN3C)nc3c(F)c(-c4nc(N)cc(C)c4C(F)(F)F)c(Cl)cc23)C(C)C1 (stereo not drawn) + C#Cc1c(F)ccc2cc(O)cc(-c3ncc4c(N5CC6CCC(C5)N6)nc(OCC56CCCN5CC(F)C6)nc4c3F)c12 | % | 46.8

// returns viability, T/C for NC1c2ccccc2OC12CCN(c1cnc3c(N4CCCc5ncccc54)n[nH]c3n1)CC2 (stereo not drawn) + C#Cc1c(F)ccc2cc(O)cc(-c3ncc4c(N5CC6CCC(C5)N6)nc(OCC56CCCN5CC(F)C6)nc4c3F)c12 with 242566-281-R-J2-PDC complex spheroid viability; value = 38.1

====

Each entry below lists one item and its recorded viability, T/C value.
Test system: 242566-281-R-J2-PDC complex spheroid viability
Experiment: Anticancer human tumor 242566-281-R-J2-PDC cell line growth inhibition [RAS];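 further: spheroids exposed to compound for 7 days before readout; 100% = DMSO vehicle control wells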
Settings: second compound 0.000949 µM; first compound 0.1 µM; hits give low values
Please reply with the bare figure in % and do not write the unit itself.

Solved cases (3 shown):
Molecule | Property measured | Obs value
C[C@@H](NC(=O)c1ncnc(N)c1Cl)c1ncc(C(=O)Nc2cc(C(F)(F)F)c(Cl)cn2)s1 + CCn1c(-c2cc(N3CCN(C)CC3)cnc2C(C)OC)c2c3cc(ccc31)-c1csc(n1)CC(NC(=O)C1CC1C)C(=O)N1CCCC(N1)C(=O)OCC(C)(C)C2 | viability, T/C | 114
CC(Nc1ccc2c(c1)OCCn1cc(N3C(=O)OCC3C(F)F)nc1-2)C(N)=O (centres undefined) + CCn1c(-c2cccnc2C(C)OC)c2c3cc(ccc31)N1CCOC(CC(NC(=O)C(C(C)C)N(C)C(=O)C3(F)CCN(C(=O)C#CC(C)(C)N(C)C)CC3)C(=O)N3CCCC(N3)C(=O)OCC(C)(C)C2)C1 | viability, T/C | 81.6
CCC(CC)c1cc(NC2CCC(N)C2)n2nccc2n1 (centres undefined) + CCn1c(-c2cccnc2C(C)OC)c2c3cc(ccc31)N1CCOC(CC(NC(=O)C(C(C)C)N(C)C(=O)C3(F)CCN(C(=O)C#CC(C)(C)N(C)C)CC3)C(=O)N3CCCC(N3)C(=O)OCC(C)(C)C2)C1 | viability, T/C | 91.4

Read the next record carefully.
viability, T/C measured on C=CC(=O)Nc1cc(Nc2nccc(-c3cn(C)c4ccccc34)n2)c(OC)cc1N(C)CCN(C)C + CCn1c(-c2cc(N3CCN(C)CC3)cnc2C(C)OC)c2c3cc(ccc31)-c1csc(n1)CC(NC(=O)C1CC1C)C(=O)N1CCCC(N1)C(=O)OCC(C)(C)C2 = 75.8
